Molecular target: CDK9/Cyclin T1 complex (Homo sapiens)
Assay: CDK9 kinase inhibition assay (Caliper/LabChip EZ Reader)
Conditions: CDK9/Cyclin T1 8 nM, ATP 2 mM, 15 min at 27° C.
pIC50: −log10 of the molar value.
READOUT NAME: pIC50

In the examples that follow, each entry is paired with its recorded pIC50.
• C=Cc1cnc(NC2CCCNC2)nc1-c1c[nH]c2ccccc12 (centres unmarked) = 5.30 to 6.70
• O=C(O)c1cccc2c(-c3nc(NC4CCCNC4)ncc3Cl)c[nH]c12 (centres unmarked) = 5.30 to 6.70
• CCC1(O)CCN(C(=O)c2ccc3c(-c4nc(NC5CCCNC5)ncc4C(F)(F)F)c[nH]c3c2)C1 (centres unmarked) = ≤ 5.30

Enquiry: Given FC(F)(F)c1cnc(NC2CCCNC2)nc1-c1c[nH]c2ccccc12 (centres unmarked) , respond with its pIC50.
Return: 6.70 to 7.70

Enquiry: Given Cc1nn(C)cc1-c1cccc2c(-c3nc(NC4CCCNC4)ncc3C(F)(F)F)c[nH]c12 (centres unmarked) , respond with its pIC50.
Return: 5.30 to 6.70

Enquiry: Given `CC(C)(O)Cn1cc(-c2ccc3c(-c4nc(N[C@H]5CCCNC5)ncc4C(F)(F)F)c[nH]c3c2)cn1` , respond with its pIC50.
Return: 5.30 to 6.70

Enquiry: Given O=C(c1ccc2c(-c3nc(NC4CCCNC4)ncc3C(F)(F)F)c[nH]c2c1)N1CCC(O)C1 (centres unmarked) , respond with its pIC50.
Return: ≤ 5.30

Enquiry: Given CC(C)c1cnc(NC2CCCNC2)nc1-c1c[nH]c2ccccc12 (centres unmarked) , respond with its pIC50.
Return: ≤ 5.30

###

As shown below, each of these compounds has a reported IC50 value.
Target: CDK9/Cyclin T1 complex (Homo sapiens, UniProt P50750)
Sequence (P50750 whole entry): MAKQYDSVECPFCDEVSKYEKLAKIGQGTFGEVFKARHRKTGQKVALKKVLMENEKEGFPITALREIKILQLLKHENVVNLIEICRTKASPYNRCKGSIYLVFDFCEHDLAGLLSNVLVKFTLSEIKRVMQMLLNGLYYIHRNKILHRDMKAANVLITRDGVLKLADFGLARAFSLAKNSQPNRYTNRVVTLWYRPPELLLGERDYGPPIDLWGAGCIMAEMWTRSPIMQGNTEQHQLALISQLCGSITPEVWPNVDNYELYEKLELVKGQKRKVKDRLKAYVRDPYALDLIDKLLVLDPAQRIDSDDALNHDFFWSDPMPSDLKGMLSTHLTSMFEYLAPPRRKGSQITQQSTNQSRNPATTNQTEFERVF
Sequence (O60563 whole entry partner): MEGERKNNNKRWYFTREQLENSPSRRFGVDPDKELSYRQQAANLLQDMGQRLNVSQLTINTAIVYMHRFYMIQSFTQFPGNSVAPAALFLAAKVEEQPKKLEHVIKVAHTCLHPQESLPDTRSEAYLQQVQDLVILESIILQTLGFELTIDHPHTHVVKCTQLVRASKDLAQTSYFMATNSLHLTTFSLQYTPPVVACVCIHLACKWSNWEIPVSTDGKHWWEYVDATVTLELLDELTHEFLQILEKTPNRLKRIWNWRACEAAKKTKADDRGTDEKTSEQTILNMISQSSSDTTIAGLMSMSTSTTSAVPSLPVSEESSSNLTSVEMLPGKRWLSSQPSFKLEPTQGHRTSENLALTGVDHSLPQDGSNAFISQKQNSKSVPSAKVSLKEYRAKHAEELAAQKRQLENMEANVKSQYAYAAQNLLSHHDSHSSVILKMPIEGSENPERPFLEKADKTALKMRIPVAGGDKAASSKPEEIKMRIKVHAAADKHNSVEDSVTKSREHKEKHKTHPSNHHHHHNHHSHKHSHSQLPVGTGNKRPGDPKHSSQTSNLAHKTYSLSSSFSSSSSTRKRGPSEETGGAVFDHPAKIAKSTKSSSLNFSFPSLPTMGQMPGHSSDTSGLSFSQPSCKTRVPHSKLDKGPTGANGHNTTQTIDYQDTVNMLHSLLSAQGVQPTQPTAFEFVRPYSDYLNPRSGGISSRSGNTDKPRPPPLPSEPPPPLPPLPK
Assay: CDK9 kinase inhibition assay (Caliper/LabChip EZ Reader)
Format: biochemical
Conditions: CDK9/Cyclin T1 8 nM, ATP 2 mM, 15 min at 27° C.

In the examples that follow, each entry is paired with its recorded IC50.
* CCc1cnc(NC2CCCNC2)nc1-c1n[nH]c2ccc(C)cc12 (centres unmarked) [Compound 120] | ≥ 5 µM
* CC1CNCC(Nc2ncc(Cl)c(-c3c[nH]c4ccccc34)n2)C1 (centres unmarked) [Compound 201] | 0.2 to 5 µM
* C#Cc1cnc(N[C@H]2CCCNC2)nc1-c1cn(C)c2ccccc12 [Compound 195] | ≥ 5 µM
* CC1(Nc2ncc(Cl)c(-c3c[nH]c4ccccc34)n2)CCCNC1 (centres unmarked) [Compound 115] | ≥ 5 µM
* CC1(C)CNCC(Nc2ncc(Cl)c(-c3c[nH]c4c(S(C)(=O)=O)c(C#N)ccc34)n2)C1 (centres unmarked) [Compound 382] | 0.2 to 5 µM

Enquiry: Given CCc1cnc(NC2CCCNC2)nc1-c1c[nH]c2nc(C#N)ccc12 (centres unmarked) [Compound 287] , respond with its IC50.
Return: ≥ 5 µM

Enquiry: Given CCc1cnc(NC2CCCNC2)nc1-c1c[nH]c2ccccc12 (centres unmarked) [Compound 105] , respond with its IC50.
Return: ≥ 5 µM

Enquiry: Given O=C(c1ccc2c(-c3nc(N[C@H]4CCCNC4)ncc3C(F)(F)F)c[nH]c2c1)N1CC[C@@H](O)C1 [Compound 250] , respond with its IC50.
Return: ≥ 5 µM
